# PROTOCOL DESCRIPTION: NCI Yeast Anticancer Drug Screen. Data for the cln2 rad14 strain (AID 165);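 also: 0% = growth equal to vehicle treated cultures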
# CONDITION INFO: S. cerevisiae cln2 rad14 strain, at 50.0 µM, stronger effect = higher value
Compounds without any hit were thinned out: in the full panel of roughly 79,000, 15% have a hit.
This listing pairs compounds with measured growth inhibition.

[
  {
    "COMPOUND": "O=C(NO)c1ccccc1O",
    "growth inhibition (%)": 4.2
  },
  {
    "COMPOUND": "CCOCCOC(=O)c1ccc(C(C)C)cc1",
    "growth inhibition (%)": -12.8
  },
  {
    "COMPOUND": "COC(=O)C(=O)C(C(=O)C=C(C)C)c1nc2n(c1O)C(=N)N=N2 (stereo not given)",
    "growth inhibition (%)": -1.75
  },
  {
    "COMPOUND": "CN(C)C(=O)Sc1ccc([N+](=O)[O-])cc1",
    "growth inhibition (%)": -45.5
  },
  {
    "COMPOUND": "CCCC(C)(O)C(C)(C)C (stereo not given)",
    "growth inhibition (%)": 11.7
  },
  {
    "COMPOUND": "CC(C)CNC(=S)N/N=C/c1ccc(C(C)C)cc1",
    "growth inhibition (%)": -46.2
  },
  {
    "COMPOUND": "CC(=O)NC(C)(C)C1CCC(C)CC1 (stereo not given)",
    "growth inhibition (%)": 8.05
  },
  {
    "COMPOUND": "Cc1cc2c(c(S(=O)(=O)c3ccc(Cl)cc3[N+](=O)[O-])c1)NCCC2",
    "growth inhibition (%)": 15.3
  },
  {
    "COMPOUND": "CC(=O)OCC1OC(n2c(C)c(N=Nc3ccccc3)c(C)c(C#N)c2=S)C(OC(C)=O)C(OC(C)=O)C1OC(C)=O (stereo not given)",
    "growth inhibition (%)": -1
  },
  {
    "COMPOUND": "COc1ccc(C2=CC(=O)C(C)(C#N)CC2)cc1 (stereo not given)",
    "growth inhibition (%)": 25.1
  },
  {
    "COMPOUND": "N/C(=N\\O)c1c(Br)n(C2OC(CO)C(O)C2O)c2ncnc(N)c12 (stereo not given)",
    "growth inhibition (%)": 10.8
  },
  {
    "COMPOUND": "COc1cc(NS(=O)(=O)c2ccc(N)cc2)nc(OC)n1",
    "growth inhibition (%)": -60.2
  },
  {
    "COMPOUND": "CCOC(=O)C(C#N)C1=CC(=O)C(=O)c2ccc(O)cc21 (stereo not given)",
    "growth inhibition (%)": 27
  },
  {
    "COMPOUND": "c1ccc2cc(N3CCOCC3)ccc2c1",
    "growth inhibition (%)": -19.9
  },
  {
    "COMPOUND": "CCOC(CCl)(NC(C)=O)C(=O)OC (stereo not given)",
    "growth inhibition (%)": -8.75
  },
  {
    "COMPOUND": "CCOC(=O)NC(=O)c1cn(CCN2CCN(C(=O)CCCCCCCCCCNc3ncnc4nc[nH]c34)CC2)c(=O)[nH]c1=O",
    "growth inhibition (%)": -25.6
  },
  {
    "COMPOUND": "CCCCN=C(C)CC(=O)CC(=O)c1ccccc1",
    "growth inhibition (%)": -53.6
  },
  {
    "COMPOUND": "O=C1CCCCCCCCCCC1",
    "growth inhibition (%)": 15.2
  },
  {
    "COMPOUND": "CCOC(=O)C1(N)CC1",
    "growth inhibition (%)": -10
  },
  {
    "COMPOUND": "CN1CCc2c1nc(-c1ccccc1)c1c2N(C)CC1",
    "growth inhibition (%)": 9.65
  },
  {
    "COMPOUND": "CCOC(=O)c1c(-c2ccc(OC)cc2)c(C#N)c(=S)n(C2OC(CO)C(O)C(O)C2O)c1C (stereo not given)",
    "growth inhibition (%)": 6.3
  },
  {
    "COMPOUND": "COc1ccc(N2C(=O)CC(c3c[nH]c4ccccc34)C2=O)cc1 (stereo not given)",
    "growth inhibition (%)": 6.9
  },
  {
    "COMPOUND": "Cc1ccccc1C(=O)c1cc(O)ccc1O",
    "growth inhibition (%)": -8
  },
  {
    "COMPOUND": "CC1(C)OC2(C)CCC1C1C2N1C(=O)Nc1cccc(Cl)c1 (stereo not given)",
    "growth inhibition (%)": -2.45
  },
  {
    "COMPOUND": "COc1ccc(/C(C)=N/N=C(\\C)c2ccc(OC)cc2)cc1",
    "growth inhibition (%)": 12.3
  }
]

###

# PROTOCOL DESCRIPTION: NCI Yeast Anticancer Drug Screen. Data for the cln2 rad14 strain (AID 165);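 also: 0% = growth equal to vehicle treated cultures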
# CONDITION INFO: S. cerevisiae cln2 rad14 strain, at 50.0 µM
This is part of a sample that, as a whole, favours compounds with a hit. Of some 79,000 tested, about 15% had one in any assay. Calls of active or inactive are those of the source. Cut-off read from the data, not from the text of the source: active = growth inhibition above about 70%; inactive = the rest.
Outcomes: active, inactive

[
  {
    "COMPOUND": "NC(CS(=O)Cc1ccccc1)C(=O)O (centres undefined)",
    "ASSIGNED CLASS": "inactive"
  },
  {
    "COMPOUND": "CN(C)Cc1cc(C(C)(C)C)cc(CNC2CCCCC2)c1O",
    "ASSIGNED CLASS": "inactive"
  },
  {
    "COMPOUND": "CONS(=O)c1ccc(Cl)cc1 (centres undefined)",
    "ASSIGNED CLASS": "inactive"
  },
  {
    "COMPOUND": "c1ccc2cc(B(c3cccc4ccccc34)c3cccc4ccccc34)ccc2c1",
    "ASSIGNED CLASS": "inactive"
  },
  {
    "COMPOUND": "Nc1ccc([N+](=O)[O-])c(F)c1",
    "ASSIGNED CLASS": "inactive"
  },
  {
    "COMPOUND": "S=C1NC(/C=C/c2ccccc2)Nc2ccccc21 (centres undefined)",
    "ASSIGNED CLASS": "active"
  },
  {
    "COMPOUND": "O=C1C(O)=C(c2ccccc2)C(=O)N1Cc1ccccc1",
    "ASSIGNED CLASS": "inactive"
  },
  {
    "COMPOUND": "Cc1nc(CO)cc(=O)[nH]1",
    "ASSIGNED CLASS": "inactive"
  },
  {
    "COMPOUND": "N#Cc1ccccc1NC(=O)C(=O)C(C(=O)c1ccncc1)C1OC(=O)c2ccccc21 (centres undefined)",
    "ASSIGNED CLASS": "inactive"
  },
  {
    "COMPOUND": "O=C(Nc1ccccc1)OC1C(OC(=O)c2ccccc2)OC(COC(=O)c2ccccc2)C1OC(=O)c1ccccc1 (centres undefined)",
    "ASSIGNED CLASS": "inactive"
  },
  {
    "COMPOUND": "Cn1c(N2CCCC2)c(C=O)c(=O)n(C)c1=O",
    "ASSIGNED CLASS": "inactive"
  },
  {
    "COMPOUND": "NNC(=O)CCCCCCO",
    "ASSIGNED CLASS": "inactive"
  },
  {
    "COMPOUND": "CCCCOC(=O)C(N)Cc1ccccc1 (centres undefined)",
    "ASSIGNED CLASS": "inactive"
  },
  {
    "COMPOUND": "CCCCCCNC(=O)/C(=C\\c1ccc(Cl)cc1Cl)NC(=O)c1ccccc1",
    "ASSIGNED CLASS": "inactive"
  },
  {
    "COMPOUND": "Cc1ccc(S(=O)(=O)CCC(=O)c2ccc([N+](=O)[O-])cc2)cc1",
    "ASSIGNED CLASS": "inactive"
  },
  {
    "COMPOUND": "OCCN(CCO)c1cc(/C=C/c2c3ccccc3cc3ccccc23)nc2ccccc12",
    "ASSIGNED CLASS": "active"
  },
  {
    "COMPOUND": "CCOC(=O)NC(=O)c1cn(CC(=O)NCC(=O)NCC(=O)NCCCN2CCN(CCCNC(=O)CNC(=O)CNC(=O)Cn3cc(C(=O)NC(=O)OCC)c(=O)[nH]c3=O)CC2)c(=O)[nH]c1=O",
    "ASSIGNED CLASS": "inactive"
  },
  {
    "COMPOUND": "CCCCC/C(C)=N\\O",
    "ASSIGNED CLASS": "inactive"
  },
  {
    "COMPOUND": "O=C(Nc1nc(=S)[nH][nH]1)C(=O)C(C(=O)c1ccc2ccccc2c1)C1OC(=O)c2ccccc21 (centres undefined)",
    "ASSIGNED CLASS": "inactive"
  },
  {
    "COMPOUND": "Brc1nccs1",
    "ASSIGNED CLASS": "inactive"
  },
  {
    "COMPOUND": "CC1CCC2C1(C)CCC1C2(C)CCC2(C)C3CC(C)(C)CCC3(C)CCC12C (centres undefined)",
    "ASSIGNED CLASS": "inactive"
  },
  {
    "COMPOUND": "CCN(CC)CCNc1cccc(Cl)c1",
    "ASSIGNED CLASS": "inactive"
  },
  {
    "COMPOUND": "O=c1nc(-c2ccccc2)cc(Cc2ccc3ccccc3n2)[nH]1",
    "ASSIGNED CLASS": "inactive"
  },
  {
    "COMPOUND": "O=C1c2ccccc2C(=O)N1c1ccccc1Cl",
    "ASSIGNED CLASS": "inactive"
  }
]
